test system: serotonine (5HT) uptake in synaptosomes; assay: Inhibition of Serotonine uptake in vitro (brain synaptosomes); type: biochemical, female rat 19 to 21 days old; settings: rat whole brain synaptosomes, 37° C, 5 minutes, 14 C-5HT 10^-7 M; read-out: I.C. 50, Test in vitro (inhibition of 14 C-5HT uptake)
Counter-ions that a name gives are not always drawn.
pIC50 by entry:
// pIC50 is dimensionless: -log10 of concentration (M)

CNC1C=Cc2cccc(Cl)c2CC1 (centres unmarked) [Example 11, hydrochloride]    6.40
CNC1C=Cc2ccccc2CC1 (centres unmarked) [Example 6, hydrochloride]    5.72
CNC1C=Cc2cc(Cl)ccc2CC1.Cl (centres unmarked) [Example 10 (2-chloro derivative), hydrochloride]    6.46
CN(C)C1CCc2ccccc2C(c2ccccc2)C1 (single isomer, unassigned) [Example 5, hydrochloride]    6.82

serotonine (5HT) uptake in synaptosomes / pIC50 / CN(C)C1C=Cc2ccccc2CC1 (centres unmarked) [Example 1, hydrochloride] : value? 6.29
